Read-out: Intercellular Adhesion Molecule 1 (ICAM1), ICAM1 (gene 3383)
Assay: LTEA_HepaRG_ICAM1: Life Technologies and Expression Analysis (LTEA) Assay for Intercellular Adhesion Molecule 1 (ICAM1) using HepaRG (AID 2283507)
Settings: mRNA level, 48 h; actives raise or lower the signal
Active and inactive are the calls of the source. How the source made its calls: active means hit-call score of the fitted dose curve at least 0.9, where 1 is the maximum; inactive means score below 0.9.
Log the outcome using a class from active, inactive

Molecule: FC(F)(F)C(F)(F)C(F)(F)C(F)(F)C(F)(F)C(F)(F)CCI
Class label: inactive
//
Molecule: Nc1nc(N)c2nc(CNc3ccc(C(=O)N[C@@H](CCC(=O)O)C(=O)O)cc3)cnc2n1
Class label: inactive
//
Molecule: Cc1oc(-c2ccccc2)nc1CCOc1cccc2c1ccn2CCC(=O)O
Class label: active
//
Molecule: CCCCCCCCCCCC(=O)OC
Class label: inactive
//
Molecule: COc1cc(S(=O)(=O)O)c(C)cc1N=Nc1c(O)ccc2cc(S(=O)(=O)O)ccc12
Class label: inactive

// next entry
Give the logged outcome of this assay for the following molecule: CC(=O)C(C)=CC1C(C)=CCCC1(C)C (stereo unspecified)
inactive

====

Read-out: Transforming Growth Factor (TGFB1), TGFB1 (gene 7040)
Test: LTEA_HepaRG_TGFB1: Life Technologies and Expression Analysis (LTEA) Assay for Transforming Growth Factor (TGFB1) Transporter using HepaRG (AID 2283533)
Conditions: mRNA level, 48 h; actives raise or lower the signal
Calls of active or inactive are those of the source. How the source made its calls: active means hit-call score of the fitted dose curve at least 0.9, where 1 is the maximum; inactive means score below 0.9.
Log the outcome using a class from active, inactive

Illustrative cases are given below, each with its answer.
Compound: NCC1(Cc2noc(=O)[nH]2)CCCCC1
Class label: inactive

Compound: Cc1ccc(C)c(C)c1
Class label: inactive

Compound: C[C@]12C=CC(=O)C=C1CC[C@@H]1[C@@H]2C(=O)C[C@@]2(C)[C@H]1CC[C@]2(O)C(=O)CO
Class label: inactive

Compound: Cc1cccc([N+](=O)[O-])c1C
Class label: inactive

Compound: Cc1nc(-c2ccc3c(c2)CCN(CCC2CCC(NC(=O)/C=C/c4ccc(F)cc4)CC2)CC3)no1 (stereo unspecified)
Class label: inactive

Give the logged outcome of this assay for the following compound: Nc1ccc2c(c1)C(=O)c1ccccc1C2=O
inactive

Give the logged outcome of this assay for the following compound: NCCO
inactive

Give the logged outcome of this assay for the following compound: CC1=C(/C=C/C(C)=C/C=C/C(C)=C/CO)C(C)(C)CCC1
inactive

Give the logged outcome of this assay for the following compound: NC(=O)Cn1c(=O)cc(CCN2CCN(c3nccc4sccc34)CC2)c2ccc(F)cc21
active

Give the logged outcome of this assay for the following compound: CCCCCCC(=O)OCC
inactive

Give the logged outcome of this assay for the following compound: CCCCc1ccc2c(n1)[C@@H](c1ccc(OC)cc1C[C@H](C)C(=O)O)[C@H](C(=O)O)[C@H]2c1ccc2c(c1)OCO2
inactive

====

Read-out: Peroxisomal acyl-coenzyme A oxidase 1 (ACOX1) gene, ACOX1 (gene 51)
Test: LTEA_HepaRG_ACOX1: Life Technologies and Expression Analysis (LTEA) Assay for Peroxisomal acyl-coenzyme A oxidase 1 (ACOX1) gene using HepaRG (AID 2283467)
Conditions: mRNA level, 48 h; actives raise or lower the signal
Calls of active or inactive are those of the source. Rule for the calls: active = hit-call score of the fitted dose curve at least 0.9, where 1 is the maximum; inactive = score below 0.9.
Log the outcome using a class from T (active), F (inactive)

Compound: CC(=O)OC/C=C(\C)CCC=C(C)C
Class label: F

Give the logged outcome of this assay for the following compound: C1CCC(SSC2CCCCC2)CC1
F

Give the logged outcome of this assay for the following compound: COc1ccc2c(c1)c(CC(=O)O)c(C)n2C(=O)c1ccc(Cl)cc1
F

Give the logged outcome of this assay for the following compound: CC(CO)OC(C)CO (stereo unspecified) (tested in a mixture with another compound)
F

Give the logged outcome of this assay for the following compound: CCCc1cc(=O)[nH]c(=S)[nH]1
F

Give the logged outcome of this assay for the following compound: COCCOCCOC
T

Give the logged outcome of this assay for the following compound: Cc1nc(-c2ccc3c(c2)CCN(CCC2CCC(NC(=O)/C=C/c4ccc(F)cc4)CC2)CC3)no1 (stereo unspecified)
F

Give the logged outcome of this assay for the following compound: O=C(O)CCCCC(=O)O
F

Give the logged outcome of this assay for the following compound: COc1ccc(C)cc1N
F

Give the logged outcome of this assay for the following compound: c1cc(-c2ccncc2)ccn1
F
